Data origin, for the record: PubChem BioAssay (NCI)

system: SNB-75 CNS; assay: NCI tumour cell line growth inhibition, 48 h
# reported TGI; entries follow
Reported Property: TGI

[
  {
    "Compound": "Cc1cc(C)nc(NS(=O)(=O)c2ccc(Nc3c4ccc(Cl)cc4nc4c(C(=O)Nc5ccc(S(N)(=O)=O)cc5)cccc34)cc2)n1",
    "Obs Value": "> 100 µM"
  },
  {
    "Compound": "CC(C)C1=CCC2C(=C1)CCC1C(C)(C(=O)O)CCCC21C (stereo not drawn) (tested in a mixture with another compound)",
    "Obs Value": "> 100 µM"
  },
  {
    "Compound": "Cc1cc(NC[C@H](O)[C@H](O)[C@H](O)CO)c(Sc2cc(=O)[nH]c(=O)[nH]2)cc1C",
    "Obs Value": "> 62.5 µM"
  },
  {
    "Compound": "O=[N+]([O-])c1cccc(-c2oc(C=Nc3ccccc3)c([N+](=O)[O-])c2-c2cccc([N+](=O)[O-])c2)c1",
    "Obs Value": "> 100 µM"
  },
  {
    "Compound": "COc1ccc(Nc2c3ccccc3nc3ccccc23)cc1",
    "Obs Value": "17.6 µM"
  },
  {
    "Compound": "O=C(/C=C/c1cc(O)c(O)cc1O)OCCc1ccccc1",
    "Obs Value": "> 100 µM"
  },
  {
    "Compound": "CSCCCNC(=O)c1csc(-c2csc(C(CNC(=O)OC(C)(C)C)CNC(=O)OC(C)(C)C)n2)n1",
    "Obs Value": "> 100 µM"
  },
  {
    "Compound": "CC(=O)c1ccc(NC(=O)C(=O)Nn2c(=S)[nH]c3ccccc3c2=O)cc1",
    "Obs Value": "> 100 µM"
  }
]
